Reference for the values: ChEMBL document CHEMBL1201862

System: MDA-MB-435
experimental-protocol: NCI tumour cell line growth inhibition, 48 h
Activity calls are given as the source filed them. No stated cut-off is given here; in the data, active = GI50 up to about 1.1 µM and inactive = higher. Starred links: 1 amine or outer side, 2 acyl side, 3 side chain; linkers in the order of their positions; H or OH if unused. Non-standard residues stand in square brackets, D forms with d. Residues, ends and D or L forms follow the SMILES beside them. X35 = C=CCC(O[*:1])C(=O)[*:2]; NMeV = CN[CH](C(=O)O)C(C)C; NMeA = CN[CH](C)C(=O)O; βAla = NCCC(=O)O
Please reply with one of these outcomes: active, inactive

molecule	system-name	label-class
Cc1ccc2c(=O)c(-c3nnc(NC4CCCCC4)s3)c[nH]c2n1	MDA-MB-435	inactive
Cc1[nH]c2ncn(Nc3ccccc3)c(=N)c2c1Cc1ccccc1	MDA-MB-435	active
COc1cc2cc(C(=O)N3CC(CCl)c4ccc(NO)cc43)[nH]c2c(OC)c1OC (centres undefined)	MDA-MB-435	active

Given Nc1ccc2ccc(N3CCNCC3)nc2n1 , state the outcome it received in this test.
inactive

Given COc1ccc(-c2[nH]c(=O)n(C3OC(CO)C(O)C(O)C3O)c(=O)c2C#N)cc1 (centres undefined) , state the outcome it received in this test.
inactive

Given COc1ccc2oc(C(=O)N3CC(CCl)c4ccc(N)cc43)cc2c1 (centres undefined) , state the outcome it received in this test.
active

Given COc1c(OC(C)C)cc2cc(O)c(C(=O)NC3Cc4ccc(c(Cl)n4)O[C@@H]4C=C5C#C/C(=C\C#CC6OC56C4OC4CC(C)(O)C(O)C(C)O4)C(OC4CC(O)C(N(C)C)C(C)O4)COC3=O)cc2c1OC (some centres undefined) , state the outcome it received in this test.
inactive

Given C#CCCOC1(OC)N=NC(C)(C)O1 (centres undefined) , state the outcome it received in this test.
inactive

Given C=CCC1OC(=O)CCNC(=O)C(C)N(C)C(=O)C(C(C)C)N(C)C(=O)C(C(C)CC)NC(=O)C2CCCN2C1=O (centres undefined) (cyclo([X35]PI[NMeV][NMeA][βAla]); configuration not given here) , state the outcome it received in this test.
inactive
